Target: HLA-C*12:02 heavy chain and β2-microglobulin (Homo sapiens, UniProt P10321, A176E/A330V/C350S/D114A/D33Y/L171W/L180W/L218V/M285V/M309V/M331V/P208H/Q277E/Q291P/S123Y/S297R/S48A/T329A/T363A/V319A/V328M)
Test: peptide/HLA refolding assay analyzed by FPLC
Assay type: binding
Conditions: heavy chain 20 μM, β2m 2 μM, peptide 85 μM; 48 h at 4°C; Superdex 75; Fig. 2d
assayMetric: refolded peptide/HLA-C*12:02/β2m complex FPLC peak Height (mAU)
# number only, unit mAU dropped from output

Study these solved cases before continuing.
Please fill in: refolded peptide/HLA-C*12:02/β2m complex FPLC peak Height reported for LGKIWPSH [Gag-LH8, HIV-1 Gag 434–441 peptide LGKIWPSH] = 6.41

Please fill in: refolded peptide/HLA-C*12:02/β2m complex FPLC peak Height reported for ILKEPVHGVYY [Pol-IY11, HIV-1 Pol 464–474 peptide […]] = 4.88

Please fill in: refolded peptide/HLA-C*12:02/β2m complex FPLC peak Height reported for FLGKIWPSH [Gag-FH9, HIV-1 Gag 433–441 peptide …] = 2.27

***
Please fill in: refolded peptide/HLA-C*12:02/β2m complex FPLC peak Height reported for KGALDLSHF [Nef-KF9, HIV-1 Nef 82–90 peptide; synthesized as …] = 4.48

Please fill in: refolded peptide/HLA-C*12:02/β2m complex FPLC peak Height reported for MSQVTNSATIM [Gag-MM11, HIV-1 Gag 367–377 peptide eluted from HLA-C*12:02; tested as clade B consensus […]] = 3.51

All values here come from paper PMC6694829.
